Reported OD450 at 0.11 nM values for a set of binders
Biological target: biotinylated labeled human GPC3 protein (produced in-house) (human, UniProt P51654 25-559, limits assumed, biotinylated (Dojindo, Cat. No. LK03); sites not stated)
Assay: ELISA, biotinylated human GPC3 protein
Write the value in OD450 as a bare number.

binder	OD450 at 0.11 nM / OD450
hAb003LH1L1 (antibody, human IgG1, V domains shown, Humanized F2.154.1; VH H1 + VL L1; expressed as human IgG1) VH: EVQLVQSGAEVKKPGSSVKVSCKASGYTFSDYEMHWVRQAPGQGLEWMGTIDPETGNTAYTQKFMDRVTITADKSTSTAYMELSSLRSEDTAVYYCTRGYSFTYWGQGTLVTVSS VL: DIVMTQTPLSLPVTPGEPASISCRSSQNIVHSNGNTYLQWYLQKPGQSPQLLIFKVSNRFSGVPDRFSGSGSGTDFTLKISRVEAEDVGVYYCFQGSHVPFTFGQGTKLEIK	2.15

Lookup: So what does the record say about OD450 at 0.11 nM for hAb003LH1L1a (antibody, human IgG1, V domains shown, Humanized F2.154.1; VH H1 + VL L1a; expressed as human IgG1) VH: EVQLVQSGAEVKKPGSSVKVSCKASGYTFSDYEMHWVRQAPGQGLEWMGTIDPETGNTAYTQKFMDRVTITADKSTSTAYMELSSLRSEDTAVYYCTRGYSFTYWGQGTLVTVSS VL: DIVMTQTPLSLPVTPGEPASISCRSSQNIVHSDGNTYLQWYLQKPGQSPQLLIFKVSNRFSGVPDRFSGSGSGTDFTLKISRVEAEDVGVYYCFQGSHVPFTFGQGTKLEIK ?
Found: 1.12

Lookup: Note, next up: hAb003LH1L1b (antibody, human IgG1, V domains shown, Humanized F2.154.1; VH H1 + VL L1b; expressed as human IgG1) VH: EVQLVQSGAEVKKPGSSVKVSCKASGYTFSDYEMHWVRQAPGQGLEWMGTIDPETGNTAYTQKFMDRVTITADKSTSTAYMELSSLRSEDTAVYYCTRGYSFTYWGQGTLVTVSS VL: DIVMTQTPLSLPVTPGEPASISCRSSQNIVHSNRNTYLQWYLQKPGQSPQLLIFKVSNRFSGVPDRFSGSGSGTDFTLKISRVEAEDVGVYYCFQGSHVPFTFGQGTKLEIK
Found: 2.1
